- System: M1 muscarinic receptor (Homo sapiens, UniProt P11229)
- Construct: expressed in transfected cells; host or cells: CHO cells (M1-CHO, under zeocin and G418 selection)
- Sequence (P11229 whole entry): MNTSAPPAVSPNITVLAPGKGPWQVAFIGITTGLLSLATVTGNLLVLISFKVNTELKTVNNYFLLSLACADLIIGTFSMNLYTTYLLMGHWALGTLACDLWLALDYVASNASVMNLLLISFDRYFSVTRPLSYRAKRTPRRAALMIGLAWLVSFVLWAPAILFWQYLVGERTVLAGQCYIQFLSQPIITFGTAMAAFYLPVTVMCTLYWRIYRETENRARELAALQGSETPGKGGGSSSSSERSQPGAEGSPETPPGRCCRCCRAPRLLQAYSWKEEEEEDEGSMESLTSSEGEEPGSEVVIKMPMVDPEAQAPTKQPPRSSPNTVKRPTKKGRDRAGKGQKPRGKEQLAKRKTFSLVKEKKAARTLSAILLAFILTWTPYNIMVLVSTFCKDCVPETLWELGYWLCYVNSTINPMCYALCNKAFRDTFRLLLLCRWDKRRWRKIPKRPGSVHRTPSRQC
- Experimental Details: Functional mobilization of intracellular calcium (FLIPR, Fluo-3), M1-CHO cells
- Assay type: cell-based
- Details: compound nos. 1-454; 100% efficacy is the maximum response obtained with the Carbachol control; read-out: M1 Efficacy
- Method: CHO cells expressing muscarinic receptors (M1 to M5) are grown as monolayers in tissue culture flasks at 37° C. in a humidified atmosphere containing 5% CO2 and passaged every 3-5 days. […] The potency, efficacy and selectivity of the muscarinic compounds were evaluated by screening the compound activity across the whole family (M1 to M5 cells). […]
Below, each entry is listed with its recorded Emax.

Completed entries (count: 8):
Clc1ccc2c(c1)C1(CCN(C3CCCCC3)CC1)CO2: 65 to 85%
COCCOC(=O)N1C2CCC1CC(N1CCC3(CC1)CN(C(C)=O)c1ccc(F)cc13)C2 (stereo not shown): 65 to 85%
CCCOC(=O)N1C2CCC1CC(N1CCC3(CC1)CN(C(=O)C1CC1)c1ccc(F)cc13)C2 (stereo not shown): 65 to 85%
c1ccc2c(c1)NCC21CCN(C2CC3CCC(C3)C2)CC1 (stereo not shown): < 65%
CC(=O)N1CC2(CCN(C3CCC4(CC3)CC(C)=NO4)CC2)c2cc(F)ccc21 (stereo not shown): 65 to 85%
COCCOC(=O)N1CC2(CCN(C3CC4CCC(C3)N4C(=O)OC(C)C)CC2)c2cc(F)ccc21 (stereo not shown): < 65%
CC(=O)NC1CC2(CCN(CC3CC4C=CC3C4)CC2)c2ccccc21 (stereo not shown): 65 to 85%
CCOC(=O)N1CCC(N2CCC3(CC2)CN(C(=O)c2cc(C)oc2C)c2ccc(F)cc23)CC1: < 65%

Input: Look up Emax: "CCOC(=O)N1CCC(N2CCC3(CC2)CN(C(=O)c2cccc(F)c2)c2ccc(F)cc23)CC1"
Output: < 65%

Input: Look up Emax for this molecule: "Fc1ccc2c(c1)C1(CCN(C[C@H]3C[C@H]4CC[C@H]3C4)CC1)CO2"
Output: 65 to 85%

Input: Endpoint output: Emax of "Fc1ccc2c(c1)C1(CCN([C@@H]3C[C@@H]4CC[C@H]3C4)CC1)CO2" . Value?
Output: 65 to 85%

Input: Emax lookup needed for CCCOC(=O)N1C2CCC1CC(N1CCC3(CC1)CN(C(=O)OC1CCC1)c1ccc(F)cc13)C2 (stereo not shown) , thanks.
Output: 65 to 85%

Input: State the recorded Emax for this entry: CC(=O)N1CC2(CCN(CC3CC4CCC3C4)CC2)c2cc(C)ccc21 (stereo not shown)
Output: 65 to 85%

Input: State the recorded Emax for this entry: CCOC(=O)N1C2CCC1CC(N1CCC3(CC1)C[C@H](NC(C)=O)c1ccccc13)C2 (stereo partly shown)
Output: < 65%

Input: Any idea what Emax was measured for "CCOC(=O)N1CCC(N2CCC3(CC2)CN(C(=O)OC(C)C)c2ccc(F)cc23)CC1" ?
Output: > 85%

Input: Please report the recorded Emax for "CS(=O)(=O)N[C@@H]1CC2(CCN(C[C@H]3C[C@H]4CC[C@H]3C4)CC2)c2ccccc21" .
Output: > 85%
